// data source = PubChem BioAssay (NCI)

- Test system: CCRF-CEM leukemia
- Experiment Notes: NCI-60 one-dose screen, 48 h
- Run Parameters: 10 µM unless noted
This is part of a sample that, as a whole, favours compounds with a hit. Of some 83,000 tested, about 20% had one in any assay. The source made the active and inactive calls. The calls were made as follows: active = growth percent below 10; inactive = the rest.
Possible outcomes: Yes for active, No for inactive

[
  {
    "Compound": "Oc1c(Br)cc(Br)c2ccc(Cn3cc(-c4ccc(C(F)(F)F)cc4)nn3)nc12",
    "Label Value": "Yes"
  },
  {
    "Compound": "CN1C(=O)/C(=C\\c2nc([P+](c3ccccc3)(c3ccccc3)c3ccccc3)c(N3CCOCC3)o2)SC1=S",
    "Label Value": "No"
  },
  {
    "Compound": "COCCn1cc(-c2csc(-c3cn(C)c4ccc(Br)cc34)n2)c2cccnc21",
    "Label Value": "No"
  },
  {
    "Compound": "O=c1[nH]c(-c2ccccc2)nc2sc3cc(O)ccc3c12",
    "Label Value": "No"
  },
  {
    "Compound": "COc1cc2oc(-c3cccc(NC(=O)c4ccccc4)c3)cc(=O)c2c(OC)c1OC",
    "Label Value": "No"
  },
  {
    "Compound": "COC12C=C/C(=C(/C(=O)OCc3ccncn3)C(=O)CCCCCCCCC3(OC)C=C/C(=C(/C(=O)OCc4ccncn4)C(=O)CCCCCCCC1)O3)O2",
    "Label Value": "Yes"
  },
  {
    "Compound": "CSc1nnc(-c2cc3c([nH]c4ccccc43)c(-c3cccc(O)c3)n2)n1-c1ccccc1",
    "Label Value": "No"
  },
  {
    "Compound": "O=c1c2cnn(-c3ccccc3)c2n2c(CN3CCOCC3)nnc2n1-c1ccccc1",
    "Label Value": "No"
  },
  {
    "Compound": "C=C1CC[C@@H]2[C@](C)(COC(C)=O)[C@H](OC(C)=O)CC[C@@]2(C)[C@@H]1CC(Nc1ccc(S(=O)(=O)Nc2ncccn2)cc1)C1=CCOC1=O (stereo not given in full)",
    "Label Value": "Yes"
  },
  {
    "Compound": "N#Cc1c(-c2ccc(Cl)cc2)nc(NN2C(=O)c3ccccc3C2=O)nc1N1CCOCC1",
    "Label Value": "No"
  },
  {
    "Compound": "Nc1ncc(-c2ccc3ncnc(Nc4cccc(Cl)c4)c3c2)cn1",
    "Label Value": "No"
  },
  {
    "Compound": "CC(C)c1ccc(-n2c(=S)[nH]c3sc4cc(O)ccc4c3c2=O)cc1",
    "Label Value": "No"
  },
  {
    "Compound": "CCOC(=O)c1c2c(n3cccc(F)c13)C(=O)c1ncccc1C2=O",
    "Label Value": "No"
  },
  {
    "Compound": "CCCCNC(=O)Oc1ccc(/C(=C(/C)Cc2ccc(OC)cc2)c2ccc(OCCN3CCCC3)cc2)cc1",
    "Label Value": "No"
  },
  {
    "Compound": "CCOc1ccc(NC(=O)CSc2oc(-c3ccccc3)nc2S(=O)(=O)c2ccc(C)cc2)cc1",
    "Label Value": "No"
  },
  {
    "Compound": "CCc1ccccc1-n1c(-c2ccc(OC)cc2)cc(-c2ccc(OC)cc2)c(C#N)c1=O",
    "Label Value": "No"
  },
  {
    "Compound": "C=CCn1c(C)nc2ccc(Nc3nc(Nc4ccc5nc(C)n(CC=C)c5c4)c4ccccc4n3)cc21",
    "Label Value": "Yes"
  },
  {
    "Compound": "COC(=O)c1c(C)c2n(c1C)C(=O)C(c1ccccc1)=C2",
    "Label Value": "No"
  },
  {
    "Compound": "Nc1nc(N)c(-c2ccc(Cl)c(Cl)c2)c(CBr)n1",
    "Label Value": "No"
  },
  {
    "Compound": "CC(=O)Oc1ccc(/C(=C(\\C)c2ccc(Cl)cc2)c2ccc(OCCN3CCCCC3)cc2)cc1",
    "Label Value": "No"
  },
  {
    "Compound": "COC1=CC(c2ccc[nH]2)=N/C1=C\\c1[nH]c(C)c(CC(=O)NCc2ccccc2)c1C",
    "Label Value": "No"
  },
  {
    "Compound": "COc1ccc(C2=C(Br)C(=O)c3nc(C)ccc3C2=O)cc1",
    "Label Value": "No"
  },
  {
    "Compound": "CNC(=O)c1[nH]cc(-c2ccc(OC)cc2)c1-c1cc(OC)c2c(c1OC)OCO2",
    "Label Value": "No"
  },
  {
    "Compound": "CCCCCC(/C=N\\NC(=S)N/N=C/C(=C/c1ccccc1)CCCCC)=C\\c1ccccc1",
    "Label Value": "No"
  },
  {
    "Compound": "O=[N+]([O-])c1cccc(-c2nc3cc4nc5ccccc5[nH]c4cc3n2)c1",
    "Label Value": "No"
  },
  {
    "Compound": "O=C(/C=C/c1cccc(Cl)c1)c1cccc(OCCCOc2cccc(C(=O)/C=C/c3cccc(Cl)c3)c2)c1",
    "Label Value": "No"
  },
  {
    "Compound": "Fc1cc2c(cc1Cl)N(c1ncnc3ccc(-c4ccc5n[nH]nc5c4)cc13)CC2",
    "Label Value": "No"
  },
  {
    "Compound": "COc1cc2cc(NCc3cccc(Cl)c3)nc(C)c2cc1OC",
    "Label Value": "No"
  },
  {
    "Compound": "CC(O)(c1ccccc1)C(c1ccccc1)C1CCCCN1 (stereo not given)",
    "Label Value": "No"
  },
  {
    "Compound": "CCCOC(=O)Nc1nc2ccc(SCC(C)C)cc2s1",
    "Label Value": "No"
  },
  {
    "Compound": "Oc1c(I)cc(I)cc1CNCc1ccccn1",
    "Label Value": "No"
  },
  {
    "Compound": "N#CC1=C(N)Oc2c(ccc3ccccc23)C1c1ccccc1 (stereo not given)",
    "Label Value": "Yes"
  },
  {
    "Compound": "CCOC(=O)c1nn(-c2ccc(S(N)(=O)=O)cc2)c2nc(C)cc(=O)n12",
    "Label Value": "No"
  },
  {
    "Compound": "CN(C)S(=O)(=O)c1cccc(C(=O)Nc2nc(-c3ccc(F)c(F)c3)cs2)c1",
    "Label Value": "No"
  },
  {
    "Compound": "Nc1c(C(=O)Nc2ccccc2F)sc2nc3c(cc12)CCCC3",
    "Label Value": "No"
  },
  {
    "Compound": "Ic1ccc(OCCCCn2ccnc2)cc1",
    "Label Value": "No"
  },
  {
    "Compound": "CCOC(=O)[C@@H]1CSC(CC)=C(C(=O)O)N1",
    "Label Value": "Yes"
  },
  {
    "Compound": "Cn1cc(-c2csc(-c3cn(C(=O)OC(C)(C)C)c4ccc(Br)cc34)n2)c2ccnc(Cl)c21",
    "Label Value": "No"
  },
  {
    "Compound": "COc1ccc2[nH]c(C(=O)N3CCN(C(=O)OCc4ccc5c(Cl)cc(Cl)c(O)c5n4)CC3)cc2c1",
    "Label Value": "Yes"
  },
  {
    "Compound": "CN(C)c1ccc(C(=O)OCCCCCCl)cc1",
    "Label Value": "No"
  }
]
